Target: L-lactate dehydrogenase B chain (Homo sapiens)
Sequence (P07195 whole entry): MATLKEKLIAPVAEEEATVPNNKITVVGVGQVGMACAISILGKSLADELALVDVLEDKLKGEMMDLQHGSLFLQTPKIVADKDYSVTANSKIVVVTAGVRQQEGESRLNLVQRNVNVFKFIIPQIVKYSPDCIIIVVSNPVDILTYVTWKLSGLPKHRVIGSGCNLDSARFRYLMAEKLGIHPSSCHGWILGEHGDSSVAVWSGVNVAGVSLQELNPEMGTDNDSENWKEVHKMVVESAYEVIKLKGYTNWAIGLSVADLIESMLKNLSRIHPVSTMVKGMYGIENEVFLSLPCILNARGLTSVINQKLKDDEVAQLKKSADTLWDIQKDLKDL
Experiment: Inhibition of human LDHB
measuredEndpoint: IC50 (nM)

{"columns": ["cpdSmiles", "measuredEndpoint", "readoutNumber"],
 "data": [
  ["Cc1ccc(C#Cc2cccc(-c3nn(-c4nc(C(=O)O)cs4)c(CC4CC4)c3Cc3ccc(S(N)(=O)=O)c(F)c3)c2)s1", "IC50", 5]
]}

Numbers sourced from ChEMBL document CHEMBL5316276.
